Assay: physchem
Settings: DMSO, pH 7
Description: Solubility of the compound in DMSO at pH 7 incubated for 24 hrs by LC-UV method
Param threshold (100 µg/mL) applies to solubility at 24 h; output rule met when value >= threshold, rule not met when value < threshold.

Determine whether this compound has solubility at 24 h no lower than 100 µg/mL: `COc1ccc(-c2ccc3c(c2)oc(=O)n3CC[C@](C)(C(=O)NO)S(C)(=O)=O)c(F)c1`
rule not met

Determine whether this compound has solubility at 24 h no lower than 100 µg/mL: `CC(C)(O)C#CC#Cc1cc2n(c1)C(=O)N(CC[C@](C)(C(=O)NO)S(C)(=O)=O)C2`
rule met

Determine whether this compound has solubility at 24 h no lower than 100 µg/mL: `C[C@@](CCN1Cc2cc(C#CC#CC3(O)COC3)cn2C1=O)(C(=O)NO)S(C)(=O)=O`
rule met

Determine whether this compound has solubility at 24 h no lower than 100 µg/mL: `CC(C)(O)c1ccc(C#Cc2cc3n(c2)C(=O)N(CC[C@](C)(C(=O)NO)S(C)(=O)=O)C3)cc1`
rule met

Determine whether this compound has solubility at 24 h no lower than 100 µg/mL: `C[C@@](CCN1Cc2cc(C#Cc3ccc(C4(O)COC4)cc3)sc2C1=O)(C(=O)NO)S(C)(=O)=O`
rule met

Determine whether this compound has solubility at 24 h no lower than 100 µg/mL: `COc1ccc(-c2ccn(CC[C@](C)(C(=O)NO)S(C)(=O)=O)c(=O)c2)c(F)c1`
rule met

Determine whether this compound has solubility at 24 h no lower than 100 µg/mL: `C[C@@](CCN1Cc2cc(C#CC#C[C@@H]3C[C@H]3CO)sc2C1=O)(C(=O)NO)S(C)(=O)=O`
rule met

Determine whether this compound has solubility at 24 h no lower than 100 µg/mL: `COc1ccc(-c2cc3c(s2)C(=O)N(CC[C@](C)(C(=O)NO)S(C)(=O)=O)C3)c(F)c1`
rule not met

Where these numbers come from: ChEMBL document CHEMBL4321865
